Data origin: patent US6878514B1

Target: NOX (NADH oxidase / ubiquinol oxidase) from HeLa cells (Homo sapiens)
Construct: other: HeLa NOX preparation; other: NOX partially purified from surface of HeLa cells
Sequence (Q16206 1-610): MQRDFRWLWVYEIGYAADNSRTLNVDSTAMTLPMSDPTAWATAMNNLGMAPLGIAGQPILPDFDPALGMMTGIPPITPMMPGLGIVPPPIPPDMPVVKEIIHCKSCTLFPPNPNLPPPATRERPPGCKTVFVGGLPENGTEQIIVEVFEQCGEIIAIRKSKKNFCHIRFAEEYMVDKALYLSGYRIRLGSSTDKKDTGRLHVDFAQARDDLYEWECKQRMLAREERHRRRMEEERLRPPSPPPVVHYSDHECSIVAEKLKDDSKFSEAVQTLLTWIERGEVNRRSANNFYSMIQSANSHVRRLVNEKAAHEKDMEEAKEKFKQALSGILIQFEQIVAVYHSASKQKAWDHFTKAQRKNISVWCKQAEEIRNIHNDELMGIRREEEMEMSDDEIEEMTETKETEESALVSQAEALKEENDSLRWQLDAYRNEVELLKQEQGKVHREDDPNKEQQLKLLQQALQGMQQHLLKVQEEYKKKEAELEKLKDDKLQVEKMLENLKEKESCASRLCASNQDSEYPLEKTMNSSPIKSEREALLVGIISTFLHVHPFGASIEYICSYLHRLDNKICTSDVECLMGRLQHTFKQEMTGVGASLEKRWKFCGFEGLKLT
Experiment: NOX-catalyzed oxidation of ubiquinol (preparation solubilized from HeLa cells)
Settings: HeLa NOX preparation; read-out: EC50 inhibition of NOX-catalyzed oxidation of ubiquinol
We begin with a simple list: items and their reported EC50.
quantity: EC50

compound	study target	recorded result
COc1cc(CNC(=O)CCCC/C=C/C(C)C)ccc1O [capsaicin, 8-methyl-N-vanillyl-6-noneamide]	NOX (NADH oxidase / ubiquinol oxidase) from HeLa cells (Homo sapiens)	0.001 µM
Cc1ccc(S(=O)(=O)NC(=O)Nc2ccc(Cl)cc2)cc1	NOX (NADH oxidase / ubiquinol oxidase) from HeLa cells (Homo sapiens)	0.03 µM
